system: KRAS G12D/RAF1 (Homo sapiens, UniProt P01116, G12D)
Construct: His6-MBP (N, cleaved yes); made in house; host or cells: E. coli
Sequence (P01116 with tags, fused parts or gaps isoform P01116-2 G12D): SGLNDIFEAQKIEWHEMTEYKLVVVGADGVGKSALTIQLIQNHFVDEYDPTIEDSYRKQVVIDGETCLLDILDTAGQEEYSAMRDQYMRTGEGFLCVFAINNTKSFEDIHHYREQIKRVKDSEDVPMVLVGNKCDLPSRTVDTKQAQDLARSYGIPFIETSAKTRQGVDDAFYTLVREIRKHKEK
assay overview: Protein-protein interaction (PPI) HTRF assay KRAS G12D/RAF1
Type: binding
test conditions: Table 4
measured parameter: IC50

INSERT INTO assay_data (compound, observed_result) VALUES
  ('C=C1CN2CCCC2(COc2nc(N3C[C@H]4CC[C@@H](C3)N4)c(C#N)c(N3CC4(CCc5sc(N)c(C#N)c54)C3)n2)C1 (stereo partly shown)', '< 0.1 µM'),
  ('Cc1n[nH]nc1COc1nc(N2C[C@H]3CC[C@@H](C2)N3)c(C#N)c(N2CC3(CCc4sc(N)c(C#N)c43)C2)n1', '10 to 100 µM'),
  ('CS(=O)(=O)c1cc2n(n1)CCCN(c1nc(OC[C@@]34CCCN3C[C@H](F)C4)nc(N3CC4(CCc5sc(N)c(C#N)c54)C3)c1C#N)C2', '1 to 10 µM'),
  ('N#Cc1c(N2C[C@H]3CC[C@@H](C2)N3)nc(OC[C@@]23CCCN2C[C@H](F)C3)nc1N1CC2(CCc3sc(N)c(C#N)c32)C1', '0.1 to 1 µM'),
  ('CN(C)C(=O)c1nn2c(c1Cl)CN(c1nc(OC[C@@]34CCCN3C[C@H](F)C4)nc(N3CC4(CCc5sc(N)c(C#N)c54)C3)c1C#N)CCC2', '0.1 to 1 µM'),
  ('CN(C)C(=O)c1nn2c(c1Cl)CN(c1nc(OCC34CCCN3CCC4)nc(N3CC4(CCc5sc(N)c(C#N)c54)C3)c1C#N)CCC2', '0.1 to 1 µM'),
  ('CN(C)C(=O)c1nn2c(c1Cl)CN(c1nc(OC[C@@]34CCCN3C[C@H](F)C4)nc(N3CC4(CCCCc5sc(N)c(C#N)c54)C3)c1C#N)CCC2', '1 to 10 µM'),
  ('N#Cc1cc2n(n1)CCCN(c1nc(OC[C@@]34CCCN3C[C@H](F)C4)nc(N3CC4(CCc5sc(N)c(C#N)c54)C3)c1C#N)C2', '10 to 100 µM'),
  ('N#Cc1c(N2CCCC(C#N)CC2)nc(OC[C@@]23CCCN2C[C@H](F)C3)nc1N1CC2(CCc3sc(N)c(C#N)c32)C1 (stereo partly shown)', '1 to 10 µM'),
  ('N#Cc1c(N2C[C@H]3CC[C@@H](C2)N3)nc(OCC2(CN3CCC(F)(F)C3)CC2)nc1N1CC2(CCc3sc(N)c(C#N)c32)C1', '1 to 10 µM'),
  ('Cc1nc(COc2nc(N3C[C@H]4CC[C@@H](C3)N4)c(C#N)c(N3CC4(CCc5sc(N)c(C#N)c54)C3)n2)n[nH]1', '10 to 100 µM'),
  ('N#Cc1c(N2C[C@H]3CC[C@@H](C2)N3)nc(OCc2cn[nH]n2)nc1N1CC2(CCc3sc(N)c(C#N)c32)C1', '10 to 100 µM'),
  ('CN1CCC[C@H]1COc1nc(N2C[C@H]3CC[C@@H](C2)N3)c(C#N)c(N2CC3(CCc4sc(N)c(C#N)c43)C2)n1', '0.1 to 1 µM'),
  ('Cc1nc(-c2nn3c(c2Cl)CN(c2nc(OC[C@@]45CCCN4C[C@H](F)C5)nc(N4CC5(CCc6sc(N)c(C#N)c65)C4)c2C#N)CCC3)n(C)n1', '10 to 100 µM'),
  ('N#Cc1c(N2CCCC3(C2)NC(=O)NC3=O)nc(OC[C@@]23CCCN2C[C@H](F)C3)nc1N1CC2(CCc3sc(N)c(C#N)c32)C1 (stereo partly shown)', '0.1 to 1 µM'),
  ('N#Cc1c(N2C[C@H]3CC[C@@H](C2)N3)nc(OCC2(c3ccn[nH]3)CC2)nc1N1CC2(CCc3sc(N)c(C#N)c32)C1', '1 to 10 µM'),
  ('N#Cc1c(N2C[C@H]3CC[C@@H](C2)N3)nc(OCC2(CN3CCSCC3)CC2)nc1N1CC2(CCc3sc(N)c(C#N)c32)C1', '0.1 to 1 µM'),
  ('C[C@@]1(O)CCCN(c2nc(OC[C@@]34CCCN3C[C@H](F)C4)nc(N3CC4(CCc5sc(N)c(C#N)c54)C3)c2F)C1', '10 to 100 µM'),
  ('CN(C)CC1(COc2nc(N3CCCn4nc(C(=O)N(C)C)c(Cl)c4C3)c(C#N)c(N3CC4(CCc5sc(N)c(C#N)c54)C3)n2)CC1(F)F (stereo not shown)', '1 to 10 µM'),
  ('N#Cc1c(N2C[C@H]3CC[C@@H](C2)N3)nc(OCC2(CN3CCOCC3)CC2)nc1N1CC2(CCCCc3sc(N)c(C#N)c32)C1', '0.1 to 1 µM'),
  ('N#Cc1cnc(OCC2(CN3CCOCC3)CC2)nc1N1CC2(CCc3sc(N)c(C#N)c32)C1', '10 to 100 µM'),
  ('CN(C)CC1(COc2nc(N3CCCn4nc(C(=O)N(C)C)c(Cl)c4C3)c(C#N)c(N3CC4(CCCc5sc(N)c(C#N)c54)C3)n2)CC1(F)F (stereo not shown)', '1 to 10 µM'),
  ('N#Cc1c(N2C[C@H]3CC[C@@H](C2)N3)nc(OCC2(c3ccccc3)CC2)nc1N1CC2(CCc3sc(N)c(C#N)c32)C1', '0.1 to 1 µM'),
  ('N#Cc1cnc(OC[C@@]23CCCN2C[C@H](F)C3)nc1N1CC2(CCc3sc(N)c(C#N)c32)C1', '10 to 100 µM'),
  ('N#Cc1c(N2CCCn3nc(C(=O)C4CC4)c(Cl)c3C2)nc(OC[C@@]23CCCN2C[C@H](F)C3)nc1N1CC2(CCc3sc(N)c(C#N)c32)C1', '10 to 100 µM');

Where do the numbers come from? From patent US12145947B2.
